# Tested on: breast cancer cell line MDA-MB-231
# protocol_text: MTT cytotoxicity assay
# Type: cell-based, human
# condition_notes: MDA-MB-231, MTT, 48 hours; read-out: IC50 inhibition of proliferation
pIC50: −log10 of the molar value.

# compound, pIC50
records = [
    ("CC(=O)C=C(C)[O-].O=S(=O)([O-])C(F)(F)F.[V+4].c1cc[cH-]c1.c1cc[cH-]c1 [VDacac, Vanadocene acetylacetonato monotriflate]", 5.02),
]
